B1: OR4K15 (parent)
chain: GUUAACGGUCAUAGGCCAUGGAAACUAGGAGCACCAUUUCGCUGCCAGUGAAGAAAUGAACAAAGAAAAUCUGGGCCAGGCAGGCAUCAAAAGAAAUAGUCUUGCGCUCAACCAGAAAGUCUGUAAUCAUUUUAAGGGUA

Variants of: B1
Test: self-cleavage, relative activity (ratio to wild type); higher = more cleavage; in vitro, sequencing; the parent is a self-cleaving ribozyme
Classify by measured self-cleavage: 1 if it is equal to or exceeds 1, -1 if it is smaller.

Task: Say whether G74U U87A shows self-cleavage of 1 or more.
Output: -1

Task: State whether the measured self-cleavage reaches 1, counting equality as reaching it, for G44A
Output: 1

Task: Kindly determine if self-cleavage recorded for A24G A69G is above or exactly 1.
Output: 1

Task: Item U26A U102C with self-cleavage of 1 or above?
Output: 1

Task: Dear colleague, could you confirm whether A51G G65A has self-cleavage at or above 1?
Output: 1

Task: Hi team, for A92G U139G , is the recorded self-cleavage at or above 1?
Output: 1

Task: Item A66U A126G with self-cleavage of 1 or above?
Output: 1

Task: Please check the record U3C A52G and state if its self-cleavage is at or above 1.
Output: 1

Task: Given G15A A114G , state whether its self-cleavage is at least 1.
Output: -1

Task: For this variant, is measured self-cleavage 1 or higher? U2A A95G
Output: 1

Task: Does the variant A94G U127C have recorded self-cleavage that is 1 or more?
Output: 1

Task: # bool: self-cleavage of A22U A69U >= 1
Output: 1

Task: Hello, I need to know if A55G G115U has measured self-cleavage not below 1. Thanks!
Output: -1

Task: Can A11G A86G be said to have self-cleavage at or above 1?
Output: -1

Task: Assess whether reported self-cleavage for A22U U108C sits at 1 or higher.
Output: -1

Task: # check: self-cleavage of A18G U38A is greater than or equal to 1
Output: 1

Task: hey, is self-cleavage for this one >= 1? A18G A33G
Output: -1

Task: Is it the case that A78G A135G has self-cleavage reaching or exceeding 1?
Output: -1

Task: Is self-cleavage at least 1? Consider A78G U87A
Output: -1

Task: Would you say G21A A95G shows self-cleavage at minimum 1?
Output: 1

Task: Has A69G G80A a recorded self-cleavage greater than or equal to 1?
Output: -1

Task: Dear colleague, could you confirm whether A56G A117G has self-cleavage at or above 1?
Output: 1

Task: Check the entry U57C G84A : does self-cleavage equal or exceed 1?
Output: 1

Task: Confirm if self-cleavage reported for the variant A92G U108G is 1 or above.
Output: -1

Task: Assess whether reported self-cleavage for A23G G80U sits at 1 or higher.
Output: -1

Task: Given A78U A117U , state whether its self-cleavage is at least 1.
Output: -1

Task: Please tell me: is the variant A68U C88U at or over 1 in terms of self-cleavage?
Output: 1

Task: Please check the record G29A U103C and state if its self-cleavage is at or above 1.
Output: -1

Task: Reported self-cleavage at or above 1? A5G U127C
Output: -1

Task: Reported self-cleavage reaches at least 1 for C46U U72C ?
Output: -1

Task: Test whether the variant C35U U38A records self-cleavage of 1 or higher.
Output: -1

Task: In plain terms: is recorded self-cleavage at least 1 for A91G U102C ?
Output: 1

Task: Determine whether this variant has self-cleavage no lower than 1: A11G A135G
Output: 1

Task: Record A33G U100C ; criterion: self-cleavage no lower than 1. Met?
Output: 1

Task: # bool: self-cleavage of A67G A134G >= 1
Output: 1

Task: Is reported self-cleavage greater than or equal to 1 here: G31A A52U
Output: 1

Task: In plain terms: is recorded self-cleavage at least 1 for U26C A116G ?
Output: 1

Task: self-cleavage >= 1 for U9C U38G ?
Output: 1

Task: hey, is self-cleavage for this one >= 1? U12C A117G
Output: 1

Task: Dear colleague, could you confirm whether A27U A96G has self-cleavage at or above 1?
Output: 1

Task: Please indicate if the recorded self-cleavage for G80A A114U meets or exceeds 1.
Output: -1

Task: API: above_or_equal(metric=self-cleavage, cutoff=1) for item A51G G136A
Output: 1

Task: # bool: self-cleavage of A30C A125G >= 1
Output: -1

Task: Given G48A A82U , state whether its self-cleavage is at least 1.
Output: -1
